// reported IC50 for each item listed
- TARGET_OR_TEST_SYSTEM: Wee1 (Homo sapiens)
- MEASUREMENT_PROTOCOL: Wee1 pCDK1 activity (known assay)

Exercise: GET /values?readout=IC50&item= COCc1cc(Nc2ncc(C#N)c(Nc3cccc(N4CCCC4=O)n3)n2)ccc1N1CCN(C)CC1 [Example 66]
Key: 250 to 500 nM

Exercise: IC50 for CN1CCN(c2ccc(Nc3ncc(C#N)c(Nc4cccc(-n5ccccc5=O)n4)n3)cc2)CC1 [Example 3] ?
Key: 500 to 1000 nM

Exercise: Returns the measured IC50 for the input compound. Input: CN1CCN(c2ccc(Nc3ncc(C#N)c(Nc4cccc(N5CCCC5=O)n4)n3)cc2)CC1=O [Example 71]
Key: 500 to 1000 nM

Now for the compound whose IC50 we want.
Exercise: Fill in the blank: the reported IC50 of CCC1(O)CCc2ccc(Nc3nc(Nc4ccc(N5C[C@@H](C)N[C@@H](C)C5)cc4)ncc3C#N)nc21 (mixture of isomers) [Example 32] is ____.
Key: 100 to 250 nM

###

- TARGET_OR_TEST_SYSTEM: Wee1 (Homo sapiens, UniProt P30291)
- Sequence (P30291 whole entry, species assumed): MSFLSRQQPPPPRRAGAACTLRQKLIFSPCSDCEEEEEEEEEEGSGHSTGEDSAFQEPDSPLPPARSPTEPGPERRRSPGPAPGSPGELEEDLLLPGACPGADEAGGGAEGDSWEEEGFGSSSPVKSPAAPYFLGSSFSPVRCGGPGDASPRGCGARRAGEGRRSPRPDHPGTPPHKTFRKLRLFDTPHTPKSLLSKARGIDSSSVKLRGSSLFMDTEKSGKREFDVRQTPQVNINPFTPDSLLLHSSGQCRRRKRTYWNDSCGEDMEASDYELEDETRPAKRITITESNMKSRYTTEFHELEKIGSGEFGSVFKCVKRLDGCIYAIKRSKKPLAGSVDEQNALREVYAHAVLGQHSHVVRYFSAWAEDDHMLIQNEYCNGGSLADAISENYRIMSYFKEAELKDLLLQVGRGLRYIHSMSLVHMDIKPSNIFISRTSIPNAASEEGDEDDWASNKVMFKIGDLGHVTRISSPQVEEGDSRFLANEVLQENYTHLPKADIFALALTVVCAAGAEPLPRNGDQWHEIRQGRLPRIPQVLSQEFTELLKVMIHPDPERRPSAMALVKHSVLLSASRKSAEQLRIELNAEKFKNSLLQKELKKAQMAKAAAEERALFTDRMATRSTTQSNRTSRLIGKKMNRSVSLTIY
- MEASUREMENT_PROTOCOL: Wee1 pCDK1 activity (known assay)
- Type: cell-based
pIC50: −log10 of the molar value.
QUANTITY_KIND: pIC50

Study these solved cases before continuing.
Exercise: pIC50 lookup needed for "Cc1cc(Nc2ncc(C#N)c(Nc3cccc(N4CCCC4=O)n3)n2)cc2c1CCN(C)C2" , thanks.
Key: ≥ 7.00

Exercise: Given the entry CCC1(O)CCc2ccc(Nc3nc(Nc4ccc(N5CCNCC5)c(C)c4)ncc3C#N)nc21 (centres unmarked) , report its measured pIC50.
Key: ≥ 7.00

Exercise: Sample "C[C@H]1CN(C)CCN1c1ccc(Nc2ncc(C#N)c(Nc3cccc(N4CCOC4=O)n3)n2)cc1" — what was its pIC50?
Key: 6.60 to 7.00

Further cases:
Exercise: Fill in the blank: the reported pIC50 of CCC1(O)CCc2ccc(Nc3nc(Nc4cc(C)c5c(c4)CN(C)CC5)ncc3C#N)nc21 (centres unmarked) is ____.
Key: ≥ 7.00

###

Here, each record is paired with measured IC50 data.
- TARGET_OR_TEST_SYSTEM: Wee1 (Homo sapiens, UniProt P30291)
- MEASUREMENT_PROTOCOL: Wee1 pCDK1 activity (known assay)

Example results:
Exercise: Fill in: IC50 of CCC1(O)CCc2ccc(Nc3nc(Nc4ccc5c(c4)CN(C)CC5(C)C)ncc3C#N)nc21 (stereo not drawn) is ___
Key: 250 to 500 nM

Exercise: Item under review: CCC1(O)CCc2ccc(Nc3nc(Nc4ccc(N5CCN(C)CC5C)cc4)ncc3C#N)nc21 (stereo not drawn) . Reported IC50?
Key: 100 to 250 nM

New cases:
Exercise: Consider the compound CCC1(O)CCc2ccc(Nc3nc(Nc4ccc(N5CC6CCC5CN6C)cc4)ncc3C#N)nc21 (stereo not drawn) and give its measured IC50.
Key: ≤ 100 nM

###

Each entry below carries its reported IC50.
- TARGET_OR_TEST_SYSTEM: Wee1 (Homo sapiens, UniProt P30291)
- MEASUREMENT_PROTOCOL: Wee1 pCDK1 activity (known assay)

Exercise: Consider the molecule CCC1(O)CCc2ccc(Nc3nc(Nc4ccc(N5C6CCC5CN(C)C6)cc4)ncc3C#N)nc21 (single isomer, unassigned) [Example 37] and give its measured IC50.
Key: > 1000 nM

Exercise: // lookup IC50 for CCC1(O)CCc2ccc(Nc3nc(Nc4ccc(C5CCN(C)CC5)c(C)c4)ncc3C#N)nc21 (single isomer, unassigned) [Example 22]
Key: 250 to 500 nM

Exercise: Given the molecule "Cc1cc(Nc2ncc(C#N)c(Nc3cccc(N4CCCC4=O)n3)n2)ccc1C1CCN(C)CC1" , what is its reported IC50?
Key: ≤ 100 nM

Exercise: Quick one: IC50 of CCC1(O)CCc2ccc(Nc3nc(Nc4ccc(N5CCC6(CCN(C)CC6)CC5)cc4)ncc3C#N)nc21 (stereo not shown) ?
Key: 100 to 250 nM

Exercise: What value of measured IC50 is listed for COC1(C)CCc2ccc(Nc3nc(Nc4ccc(N5CCN(C)CC5)cc4)ncc3C#N)nc21 (stereo not shown) ?
Key: 250 to 500 nM

Exercise: Suppose we examine the molecule CCC1(O)CCCc2ccc(Nc3nc(Nc4ccc(N5CCN(C)CC5)cc4)ncc3C#N)nc21 (stereo not shown) ; what IC50 value has been reported?
Key: 100 to 250 nM

Pending molecule:
Exercise: Which IC50 reading was recorded for the molecule "Cc1cc(Nc2ncc(C#N)c(Nc3cccc(N4CCCC4=O)n3)n2)cc2c1CNCC2" ?
Key: 500 to 1000 nM
